test: Inhibition of tubulin polymerization
METRIC_NAME: IC50 (nM)
Kindly provide the numeric value in nM only, without the unit symbol.

Query: Note IC50 for the compound shown: `COc1ccc2c(c1)[C@@H](NC(C)=O)CCc1cc(OC)c(OC)c(OC)c1-2`
Reply: 700

----------
species on record: Ovis aries; assay: Inhibition of sheep brain tubulin polymerization at 6.7 x 10^-5 M after 15 mins by turbidimetry analysis
Entry flag: Satisfied if inhibition reaches 20%; Not satisfied if it does not.

Query: Could you please find out whether COc1ccc2c(c1)C(NC(=O)C(F)(F)F)CC(O)c1cc(OC)c(OC)c(OC)c1-2 (centres undefined) has inhibition that meets 20% or exceeds it?
Reply: Not satisfied

Query: Could you please find out whether COc1ccc(-c2ccc(OC)c3c2C(NC(=O)C(F)(F)F)CC3=O)c(OC)c1OC (centres undefined) has inhibition that meets 20% or exceeds it?
Reply: Satisfied

Query: Could you please find out whether COc1cc2c(cc1OC)-c1ccc(O)cc1C(NC(=O)C(F)(F)F)CC2=O (centres undefined) has inhibition that meets 20% or exceeds it?
Reply: Satisfied

Query: Could you please find out whether COc1cc2c(cc1OC)-c1ccccc1C(NC(=O)C(F)(F)F)CC2=O (centres undefined) has inhibition that meets 20% or exceeds it?
Reply: Not satisfied

Query: Could you please find out whether COc1cc2c(cc1OC)[C@H](O)C[C@@H](NC(=O)C(F)(F)F)c1ccccc1-2 (racemic) has inhibition that meets 20% or exceeds it?
Reply: Satisfied

Query: Could you please find out whether COc1ccc2c(c1)C(NC(=O)C(F)(F)F)CC(=O)c1cc(OC)c(OC)c(OC)c1-2 (racemic) has inhibition that meets 20% or exceeds it?
Reply: Satisfied

Query: Could you please find out whether COc1cc2c(cc1OC)C(O)CC(NC(=O)C(F)(F)F)c1cc(O)ccc1-2 (mixture of isomers) has inhibition that meets 20% or exceeds it?
Reply: Not satisfied

Query: Could you please find out whether COc1ccc2c(c1)C(NC(=O)C(F)(F)F)CC(=O)c1cc(OC)c(OC)cc1-2 (centres undefined) has inhibition that meets 20% or exceeds it?
Reply: Satisfied

Query: Could you please find out whether COc1cc2c(c(OC)c1OC)-c1ccccc1C(NC(=O)C(F)(F)F)CC2=O (centres undefined) has inhibition that meets 20% or exceeds it?
Reply: Satisfied

Query: Could you please find out whether COc1cc([C@@H]2c3cc4c(cc3C[C@H]3COC(=O)[C@@H]32)OCO4)cc(OC)c1OC [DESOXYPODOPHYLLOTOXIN] has inhibition that meets 20% or exceeds it?
Reply: Satisfied

Query: Could you please find out whether COc1cc2c(c(OC)c1OC)-c1ccc(O)cc1C(NC(=O)C(F)(F)F)CC2O (mixture of isomers) has inhibition that meets 20% or exceeds it?
Reply: Satisfied

Query: Could you please find out whether COc1ccc2c(c1)C(NC(=O)C(F)(F)F)CC(O)c1cc(OC)c(OC)cc1-2 (mixture of isomers) has inhibition that meets 20% or exceeds it?
Reply: Not satisfied

Query: Could you please find out whether COc1cc2c(c(OC)c1OC)-c1ccc(O)cc1C(NC(=O)C(F)(F)F)CC2=O (centres undefined) has inhibition that meets 20% or exceeds it?
Reply: Satisfied

Query: Could you please find out whether COc1cc2c(c(OC)c1OC)-c1ccccc1C(NC(=O)C(F)(F)F)CC2O (mixture of isomers) has inhibition that meets 20% or exceeds it?
Reply: Satisfied
